# Test system: SCC-4;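 also: growth inhibition of human SCC-4 cells, read out as cell viability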
# procedure summary: cells
# Format: functional, cell-based, Homo sapiens
# details: scc-4
# Description: SANGER: Inhibition of human SCC-4 cell growth in a cell viability assay.
quantity: pIC50
Give only the number. pIC50 is defined as minus log10 of concentration in molar units.

Q: What measured pIC50 goes with BLEOMYCIN ?
Result: 5.61

* * *

# System: NCI-H1793;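 also: cell growth inhibition, read out by a cell viability assay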
# procedure summary: cells
# Type: functional, cell-based, Homo sapiens
# details: Homo sapiens, NCI-H1793
# Description: SANGER: Inhibition of human NCI-H1793 cell growth in a cell viability assay.
pIC50: −log10 of the molar value.
quantity: pIC50

Q: Return reported pIC50; argument: COc1cc2c(Nc3ccc(NC(=O)c4ccccc4)cc3)ncnc2cc1OCCCN1CCOCC1
Result: < 5.40

Q: Would you mind telling me what pIC50 value was observed for CCN(CC)CCCCNc1ncc2cc(-c3cc(OC)cc(OC)c3)c(NC(=O)NC(C)(C)C)nc2n1 [PD-173074] ?
Result: < 5.70

Q: Request the reported pIC50 associated with Nc1ccn([C@@H]2O[C@H](CO)[C@@H](O)C2(F)F)c(=O)n1 [GEMCITABINE]
Result: 6.65

* * *

# Tested on: EM-2;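 also: growth inhibition of EM-2 cells, read out with a cell viability assay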
# procedure summary: cells
# Type: functional, cell-based, Homo sapiens
# details: em-2
# Description: SANGER: Inhibition of human EM-2 cell growth in a cell viability assay.
quantity: IC50 (µM)
Could you give me the number in µM? Just the number is fine.

Q: Can you look up the measured IC50 of CISPLATIN for me?
Result: 71.2

* * *

# Test system: SW1463;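 also: growth inhibition of SW1463 cells, determined with a cell viability assay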
# procedure summary: cells
# Type: functional, cell-based, Homo sapiens
# details: Homo sapiens, SW1463
# Description: SANGER: Inhibition of human SW1463 cell growth in a cell viability assay.
// IC50 lookup, one value per entry

Sample records with IC50:
> print(dat)
                                   compound  quantity  reported.measurement
1  C=C(c1ccc(C(=O)O)cc1)c1cc2c(cc1C)C(C)(C)CCC2(C)C [BEXAROTENE]      IC50                > 8 µM
2  Cc1cn(-c2cc(NC(=O)c3ccc(C)c(Nc4nccc(-c5cccnc5)n4)c3)cc(C(F)(F)F)c2)cn1 [NILOTINIB]      IC50                > 2 µM

Q: Which IC50 is reported for this compound? N#Cc1c(O)c2c(-c3ccc(-c4ccccc4O)cc3)csc2[nH]c1=O
Result: > 1.02 µM

Q: Suppose we examine the compound Nc1cccc2c1CN(C1CCC(=O)NC1=O)C2=O (centres undefined) [LENALIDOMIDE] ; what IC50 value has been reported?
Result: > 5 µM

* * *

# Test system: CAL-12T
# procedure summary: cells
# Assay type: functional, cell-based, Homo sapiens
# details: Homo sapiens, CAL-12T
# Description: SANGER: Inhibition of human CAL-12T cell growth in a cell viability assay.
quantity: pIC50
Lab note — pIC50 values are minus log10 of concentrations in M.

Q: API: value(readout= pIC50, system= CAL-12T, query= C=C(c1ccc(C(=O)O)cc1)c1cc2c(cc1C)C(C)(C)CCC2(C)C [BEXAROTENE] )
Result: 5.40

Q: // map COc1cccc2c1C(=O)c1c(O)c3c(c(O)c1C2=O)C[C@@](O)(C(=O)CO)C[C@@H]3O[C@H]1C[C@H](N)[C@H](O)[C@H](C)O1 [DOXORUBICIN] to recorded pIC50 (system: CAL-12T)
Result: 7.69

* * *

# System: RPMI-6666
# procedure summary: cells
# Assay type: functional, cell-based, Homo sapiens
# details: rpmi-6666
# Description: SANGER: Inhibition of human RPMI-6666 cell growth in a cell viability assay.
quantity: pIC50
Quick note: pIC50 means taking -log10 of the concentration in moles per liter.

Q: Which value of pIC50 has been reported for BLEOMYCIN in the records?
Result: 6.35

* * *

# Tested on: A-431;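 also: growth inhibition of A-431 cells, determined with a cell viability read-out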
# procedure summary: cells
# Type: functional, cell-based, Homo sapiens
# details: Homo sapiens, A-431
# Description: SANGER: Inhibition of human A431 cell growth in a cell viability assay.
Items are presented alongside their recorded IC50.

Reference set (2 entries):
compound	target or test system	IC50
CS(=O)(=O)c1ccc(C(=O)Nc2ccc(Cl)c(-c3ccccn3)c2)c(Cl)c1	A-431	> 10 µM
CCC/C=C/C=C/C(=O)O[C@H]1/C(=C/C(=O)OC)C[C@H]2C[C@H]([C@@H](C)O)OC(=O)C[C@H](O)C[C@@H]3C[C@H](OC(C)=O)C(C)(C)[C@](O)(C[C@@H]4C/C(=C/C(=O)OC)C[C@H](/C=C/C(C)(C)[C@]1(O)O2)O4)O3	A-431	> 0.008 µM

Q: What value of IC50 has been recorded for this entry: Cn1cnc2c(F)c(Nc3ccc(Br)cc3Cl)c(C(=O)NOCCO)cc21
Result: > 4 µM

Q: Quick one: IC50 for CCN(CC)CCCCNc1ncc2cc(-c3cc(OC)cc(OC)c3)c(NC(=O)NC(C)(C)C)nc2n1 ?
Result: > 2 µM

Q: Quick check: IC50 of CC(C)CCN1c2nc(Nc3cc(F)c(O)c(F)c3)ncc2N(C)C(=O)C1C (stereo not given) ?
Result: 4.14 µM

* * *

Measured pIC50 of individual entries
# Tested on: SK-N-FI;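 also: cell viability assay measuring growth inhibition of human SK-N-FI cells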
# procedure summary: cells
# Assay type: functional, cell-based, Homo sapiens
# details: Homo sapiens, SK-N-FI
# Description: SANGER: Inhibition of human SK-N-FI cell growth in a cell viability assay.
pIC50: −log10 of the molar value.

test smiles	reported measurement
Cc1cc([N+](=O)[O-])ccc1NS(=O)(=O)c1cc(Cl)ccc1Cl	4.78
CS(=O)(=O)c1ccc(C(=O)Nc2ccc(Cl)c(-c3ccccn3)c2)c(Cl)c1	< 5.00
COc1cc2c(Nc3ccc(NC(=O)c4ccccc4)cc3)ncnc2cc1OCCCN1CCOCC1	< 5.40

Q: I'd like to know its pIC50. The compound in question is CC1(C)CNc2cc(NC(=O)c3cccnc3NCc3ccncc3)ccc21
Result: < 5.70

Q: Request the reported pIC50 associated with N[C@@H](CSC(c1ccccc1)(c1ccccc1)c1ccccc1)C(=O)O
Result: 5.50

Q: Return reported pIC50; argument: CC(=O)O[C@H]1C(=O)[C@@]2(C)[C@H]([C@H](OC(=O)c3ccccc3)[C@]3(O)C[C@H](OC(=O)[C@H](O)[C@@H](NC(=O)c4ccccc4)c4ccccc4)C(C)=C1C3(C)C)[C@]1(OC(C)=O)CO[C@@H]1C[C@@H]2O
Result: < 6.99

Q: So what does the record say about pIC50 for Nc1ccn([C@@H]2O[C@H](CO)[C@@H](O)C2(F)F)c(=O)n1 ?
Result: < 5.99

* * *

Recorded measurements of pIC50, one per entry
# Test system: NCI-H2081
# procedure summary: cells
# Assay type: functional, cell-based, Homo sapiens
# details: Homo sapiens, NCI-H2081
# Description: SANGER: Inhibition of human NCI-H2081 cell growth in a cell viability assay.
pIC50: −log10 of the molar value.

> print(dat)
                                   compound  target.or.test.system  quantity  reported.measurement
1  COc1cccc2c1C(=O)c1c(O)c3c(c(O)c1C2=O)C[C@@](O)(C(=O)CO)C[C@@H]3O[C@H]1C[C@H](N)[C@H](O)[C@H](C)O1              NCI-H2081     pIC50                  6.63
2  Cc1cc([N+](=O)[O-])ccc1NS(=O)(=O)c1cc(Cl)ccc1Cl              NCI-H2081     pIC50                < 4.49
3   OCCCNc1cc(-c2ccnc(Nc3cccc(Cl)c3)n2)ccn1              NCI-H2081     pIC50                < 6.59
4  COc1cc2ncn(-c3cc(OCc4ccccc4S(C)(=O)=O)c(C#N)s3)c2cc1OC [GSK-319347A]              NCI-H2081     pIC50                < 5.30

Q: Return reported pIC50; argument: CCN(CC)CCNC(=O)c1c(C)[nH]c(/C=C2\C(=O)Nc3ccc(F)cc32)c1C
Result: < 5.10

Q: Look up pIC50 for this compound: N#Cc1c(O)c2c(-c3ccc(-c4ccccc4O)cc3)csc2[nH]c1=O
Result: < 5.99

* * *

# System: SNU-16;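 also: growth inhibition of human SNU-16 cells, determined with a cell viability readout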
# procedure summary: cells
# Type: functional, cell-based, Homo sapiens
# details: snu-16
# Description: SANGER: Inhibition of human NCI-SNU-16 cell growth in a cell viability assay.
quantity: pIC50
Note: pIC50 values are expressed as the negative base-10 logarithm of concentration in M.

Q: Hello, I am looking for reported pIC50 with SNU-16 for BLEOMYCIN . Could you help?
Result: 1.79

* * *

# Test system: ES3
# procedure summary: cells
# Assay type: functional, cell-based, Homo sapiens
# details: Homo sapiens, ES3
# Description: SANGER: Inhibition of human ES3 cell growth in a cell viability assay.
Listed next: entries and their corresponding IC50.
Give the value, in units of µM, as a plain number.

> print(dat)
                                   compound  reported.measurement
1  Cc1cc([N+](=O)[O-])ccc1NS(=O)(=O)c1cc(Cl)ccc1Cl                  7.72

Q: Query: IC50; subject: Oc1ccc2ccccc2c1SSc1c(O)ccc2ccccc12
Result: 11.4

Q: Which IC50 is reported for this compound? COc1cccc2c1C(=O)c1c(O)c3c(c(O)c1C2=O)C[C@@](O)(C(=O)CO)C[C@@H]3O[C@H]1C[C@H](N)[C@H](O)[C@H](C)O1 [DOXORUBICIN]
Result: 0.0895
